Hello, the source for this data is PubChem BioAssay (NCI), in case you need it.

Collected growth values appear next to each entry.
System: NCI/ADR-RES ovarian
experimentNotes: NCI-60 one-dose screen, 48 h (100 = growth as untreated, 0 = no growth, -100 = all killed)
assayContext: 10 µM unless noted
About 83,000 compounds went through this panel and 20% of them were active in at least one assay; those are over-represented in the sample as a whole. The source made the active and inactive calls. The calls were made as follows: active = growth percent below 10; inactive = the rest.

Please review the entries below; each comes with its answer.
Cc1ccc2oc(=O)cc(-c3sc(N4CCCCC4)nc3-c3ccccc3)c2c1 : 98.4% (inactive)
Cc1cc(Nc2ccc(F)cc2)nc(N2CCN(c3ccnc4cc(Cl)ccc34)CC2)n1 : 13.5% (inactive)
N#C/C(=C\c1ccc(-c2ccc(Br)cc2)o1)c1nc(-c2cccs2)cs1 : 95% (inactive)

Notebook: `Brc1ccc2c(c1)c(-c1nc(-c3c[nH]c4ncccc34)cs1)cn2CCCN1CCCCC1` , growth read as 13.4% (inactive)

Notebook: `C[N+](C)(CCCCCC[N+](C)(C)C1c2ccccc2-c2ccccc21)C1c2ccccc2-c2ccccc21` , growth read as 115% (inactive)

Notebook: `Cn1c2ccccc2c2c3c(c4c5cccnc5[nH]c4c21)C(=O)N(O)C3=O` , growth read as 57.2% (inactive)

Notebook: `O=C(/C=C/c1cccc2ccccc12)Nc1ncc(Cc2ccccc2)s1` , growth read as -8.05% (active)

Notebook: `Clc1cc(Cl)cc(Nc2ccc3c(OCCCN4CCOCC4)cccc3n2)c1` , growth read as 60.9% (inactive)

Notebook: `CCN(CC)c1ccc(/C=C/c2cc(C)c3ccccc3n2)cc1` , growth read as 15.9% (inactive)

Notebook: `N#Cc1c(-c2ccco2)nc2c(c(-c3ccccc3)nn2-c2ccccc2)c1-c1ccc(O)cc1` , growth read as 76.4% (inactive)

====

Test system: IGROV1 ovarian
experimentNotes: NCI-60 one-dose screen, 48 h (100 = growth as untreated, 0 = no growth, -100 = all killed)
assayContext: 10 µM unless noted
About 83,000 compounds went through this panel and 20% of them were active in at least one assay; those are over-represented in the sample as a whole. Calls of active or inactive are those of the source. Rule for the calls: active = growth percent below 10; inactive = the rest.
Collected growth values appear next to each entry.

O=C1C(=O)c2ccccc2C(O)=C1CCCc1ccc(C2CCCCC2)cc1 : 51.3% (inactive)
CN1CCN(c2nc(-c3csc(-c4cccs4)n3)cc3ccccc23)CC1 : 23.1% (inactive)
COc1cc2nc(Cl)nc(Nc3cccc(C(=O)/C=C/c4ccc(F)cc4)c3)c2cc1OC : 51% (inactive)

Consider the record given below.
Notebook: `CCOC(=O)C/C(=C\c1ccccc1)C(C)=O` , growth read as 109% (inactive)

====

Test system: MCF7 breast
experimentNotes: NCI-60 one-dose screen, 48 h
assayContext: 10 µM unless noted
Compounds without any hit were thinned out: in the full panel of roughly 83,000, 20% have a hit. The source made the active and inactive calls. How the source made its calls: active means growth percent below 10; inactive means the rest.
Parameter call: string, one of T = active, F = inactive

Examples from the recorded data:
Cn1cc(-c2nc(-c3cn(C)c4ncccc34)cs2)c2ccccc21 : F
Cc1nn2c(-c3nc4cc(Cl)c(Cl)cc4[nH]3)c(-c3ccc(F)cc3)nc2s1 : F
Cc1cc(N(CCCNc2ccnc3cc(Cl)ccc23)Cc2ccco2)nc(N2CCN(C)CC2)n1 : F
N#CCCCCCn1c2ccccc2c2c3c(c4c5ccccc5n(CCCCCC#N)c4c21)C(=O)N(O)C3=O : F
CN1CCN(c2nc(-c3cccc4ccccc34)nc3sc4c(c23)CCCCCC4)CC1 : F

Exercise: Please state the recorded outcome for this compound: `NCCn1cc(-c2nc(-c3c[nH]c4ncccc34)cs2)c2cc(Br)ccc21`
Solution: F

Exercise: Please state the recorded outcome for this compound: `CC1(C)C(=O)CC[C@]2(C)[C@H]3C(=O)C=C4[C@@H]5C[C@@](C)(C(=O)NCCNCCN)CC[C@]5(C)CC[C@@]4(C)[C@]3(C)CC[C@@H]12`
Solution: F

====

Tested on: SK-MEL-2 melanoma
experimentNotes: NCI-60 one-dose screen, 48 h
assayContext: 10 µM unless noted
This is part of a sample that, as a whole, favours compounds with a hit. Of some 83,000 tested, about 20% had one in any assay. Calls of active or inactive are those of the source. The calls were made as follows: active = growth percent below 10; inactive = the rest.
Parameter call: string, one of active, inactive

Examples from the recorded data:
C=C(C)[C@@H]1CC[C@]2(C(=O)OC)CC[C@]3(C)[C@H](CC[C@@H]4[C@@](C)(CC/C(N)=N/O)[C@H](C(=C)C)CC[C@]43C)[C@@H]12 : inactive
COC(=O)[C@]12CC[C@@H](C)[C@H](C)[C@@H]1C1=CC[C@@H]3[C@@]4(C)C[C@@H](OC(C)=O)[C@H](O)[C@@](C)(CO)[C@@H]4[C@H](O)C[C@@]3(C)[C@]1(C)CC2 : active
O=S(=O)(NCCNc1cc(-c2cn(-c3ccccc3)nc2-c2cccc(O)c2)ccn1)c1ccccc1 : inactive

Moving on to the next molecule.
Exercise: Please state the recorded outcome for this molecule: CC(C)(C)c1[nH]nc2c1C(c1cc3ccccc3[nH]c1=O)Nc1cc(C(=O)OCc3ccccc3)ccc1N2 (centres undefined)
Solution: inactive

====

Test system: NCI-H23 lung
experimentNotes: NCI-60 one-dose screen, 48 h (100 = growth as untreated, 0 = no growth, -100 = all killed)
assayContext: 10 µM unless noted
The panel holds about 83,000 compounds, 20% with a hit somewhere; the sample as a whole holds those more often.
Collected growth values appear next to each entry.
Enter your answer as a number in %; do not include the unit.

COc1ccc(-c2cc(/C=C/C(=O)c3ccc(N)cc3)[nH]n2)cc1 : 27.3

Value (growth, NCI-H23 lung) for record `COC(=O)[C@]12CC[C@@H](C(C)=O)[C@@H]1[C@H]1CC[C@@H]3[C@@]4(C)C/C(=C/c5cccnc5)C(=O)C(C)(C)[C@@H]4CC[C@@]3(C)[C@]1(C)CC2` = 53.2

Value (growth, NCI-H23 lung) for record `CC(C)(C)c1ccc(OCCCCCCCN2CCNCC2)cc1` = 51.9

Value (growth, NCI-H23 lung) for record `C=C(C)[C@@H]1CC[C@]2(C(=O)N3CCCNCC3)CC[C@]3(C)[C@H](CC[C@@H]4[C@@]5(C)CCC(=O)C(C)(C)[C@@H]5CC[C@]43C)[C@@H]12` = 98.4

Value (growth, NCI-H23 lung) for record `O=S(=O)(NCCNc1cc(-c2cn(-c3ccccc3)nc2-c2cccc(O)c2)ccn1)c1ccc(C(F)(F)F)cc1` = 41.8

====

Tested on: HCT-15 colon
experimentNotes: NCI-60 one-dose screen, 48 h
assayContext: 10 µM unless noted
This is part of a sample that, as a whole, favours compounds with a hit. Of some 83,000 tested, about 20% had one in any assay. Active and inactive are the calls of the source. The calls were made as follows: active = growth percent below 10; inactive = the rest.
Parameter call: string, one of active, inactive

Examples from the recorded data:
C=C(C)[C@@H]1CC[C@]2(CN)CC[C@]3(C)[C@H](CC[C@@H]4[C@@]5(C)CCC(=O)NC(C)(C)[C@@H]5CC[C@]43C)[C@@H]12 : inactive
O=C1NC(=Nc2ccc(S(=O)(=O)Nc3nccs3)cc2)S/C1=C\c1coc2ccccc2c1=O : inactive
O=C(CCCCCn1c2ccccc2c2c3c(c4c5ccccc5[nH]c4c21)C(=O)N(O)C3=O)N1CCOCC1 : inactive
CC1c2ccccc2N(S(=O)(=O)c2ccccc2)C1C (stereo not given) : inactive
COc1ccc(/C=C/C(=O)NCCO)cc1 : inactive

Exercise: Please state the recorded outcome for this molecule: `Cc1cc(N2CCCCC2)nc(N(CCCNc2ccnc3cc(Cl)ccc23)Cc2ccco2)n1`
Solution: inactive

Exercise: Please state the recorded outcome for this molecule: CC(Cc1ccco1)C(=O)NC(N)=O (stereo not given)
Solution: inactive

====

System: TK-10 renal
experimentNotes: NCI-60 one-dose screen, 48 h (100 = growth as untreated, 0 = no growth, -100 = all killed)
assayContext: 10 µM unless noted
This is part of a sample that, as a whole, favours compounds with a hit. Of some 83,000 tested, about 20% had one in any assay.
The threshold is inclusive: growth of exactly 40% counts as label 1; values below receive label 0.

Examples from the recorded data:
C/C(=N\Nc1cc(C)c2cc(C)ccc2n1)c1ccccn1 : label 0
COc1ccc(-c2cc(/C=C/C(=O)c3ccc(N)cc3)[nH]n2)cc1 : label 1
CCCCC(=O)OC1CCCCC1C (stereo not given) : label 1
C=C1C(=O)O[C@H]2[C@H]1CC/C(COC(=O)NCCc1c[nH]c3ccccc13)=C\CC[C@@]1(C)O[C@@H]21 : label 0

Moving on to the next compound.
Exercise: Threshold query (growth >= 40%) on CC(=O)O[C@H]1CC[C@@]2(C)[C@@H](CC[C@@H]3[C@@H]2CC(=O)[C@@]2(C)[C@H]3C[C@@H](C3CCCC3=O)[C@@H]2C(C)=O)C1 (stereo not given in full)
Solution: label 1
